Reference source for all entries: ChEMBL document CHEMBL1144569

biological target: UniProtKB P34972; test: Agonist activity at CB2 receptor expressed in HL60 cells assessed as increase in intracellular free calcium concentrations
Sequence (P34972 whole entry): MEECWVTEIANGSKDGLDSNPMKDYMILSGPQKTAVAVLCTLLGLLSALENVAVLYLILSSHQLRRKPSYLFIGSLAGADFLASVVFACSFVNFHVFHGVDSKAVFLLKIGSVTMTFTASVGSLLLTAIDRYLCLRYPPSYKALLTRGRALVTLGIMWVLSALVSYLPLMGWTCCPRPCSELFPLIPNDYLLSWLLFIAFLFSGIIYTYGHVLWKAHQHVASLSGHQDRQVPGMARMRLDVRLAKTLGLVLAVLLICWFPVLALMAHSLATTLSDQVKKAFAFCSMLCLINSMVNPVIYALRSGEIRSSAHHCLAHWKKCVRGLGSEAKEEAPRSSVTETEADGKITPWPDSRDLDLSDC
REPORTED_PROPERTY: EC50 (nM)
Write down the numeric answer in nM and omit the unit.

EC50 reading for CCCCC/C=C\C/C=C\C/C=C\C/C=C\CCCC(=O)OC(CO)CO : 17
